Each item that follows carries a reported pIC50.
- Target entity: human GPR182 (untagged), stably expressed on HEK293T cells (human, UniProt O15218 1-404)
- Sequence (O15218 whole entry): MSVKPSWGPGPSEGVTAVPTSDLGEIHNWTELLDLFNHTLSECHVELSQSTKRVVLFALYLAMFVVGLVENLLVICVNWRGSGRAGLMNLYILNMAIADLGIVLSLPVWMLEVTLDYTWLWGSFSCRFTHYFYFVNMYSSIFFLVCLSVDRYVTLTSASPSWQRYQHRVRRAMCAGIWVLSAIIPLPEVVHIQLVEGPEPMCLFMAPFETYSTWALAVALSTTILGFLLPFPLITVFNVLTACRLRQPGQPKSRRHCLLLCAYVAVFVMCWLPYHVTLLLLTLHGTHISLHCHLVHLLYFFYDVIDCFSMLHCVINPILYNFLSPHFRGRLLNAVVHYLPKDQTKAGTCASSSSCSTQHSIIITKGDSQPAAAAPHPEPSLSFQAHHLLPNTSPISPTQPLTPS
- Assay info: flow cytometry on cells
The reply should be a number, written without any unit.

Study these solved cases before continuing.
Binder	Observed value
human CCL25 (ligand) QGVFEDCCLAYHYPIGWAVLRRAWTYRIQEVSGSCNLPAAIFYLPKRHRKVCGNPKSREVQRAMKLLDARNKVFAKLHHNTQTFQAGPHAVKKLSSGNSKLSSSKFSNPISSSKRNVSLLISANSGL	7.17
human CCL19 (ligand) GTNDAEDCCLSVTQKPIPGYIVRNFHYLLIKDGCRVPAVVFTTLRGRQLCAPPDQPWVERIIQRLQRTSAKMKRRSS	7.21
human CXCL13 (ligand) VLEVYYTSLRCRCVQESSVFIPRRFIDRIQILPRGNGCPRKEIIVWKKNKSIVCVDPQAEWIQRMMEVLRKRSSSTLPVPVFKRKIP	7.67
viral macrophage inflammatory protein II (ligand) GDTLGASWHRPDKCCLGYQKRPLPQVLLSSWYPTSQLCSKPGVIFLTKRGRQVCADKSKDWVKKLMQQLPVTAR	7.87
human GPR15L (ligand) KRRPAKAWSGRRTRLCCHRVPSPNSTNLKGHHVRLCKPCKLEPEPRLWVVPGALPQV	8

We next turn to a different binder, shown below.
Q) Write down pIC50 measured for item human CXCL17 (ligand) SSLNPGVARGHRDRGQASRRWLQEGGQECECKDWFLRAPRRKFMTVSGLPKKQCPCDHFKGNVKKTRHQRHHRKPNKHSRACQQFLKQCQLRSFALPL
A) 7.89
